Measured values drawn from patent US7576091B2 for this set.

Hi! I'm sharing some pIC50 results obtained with Cyclin E - CDK2 (Homo sapiens, UniProt P24941).
FYI, pIC50 means -log10 of a concentration in mol per litre.

Solved cases below.
# CHEMICAL_STRING, TEST_SYSTEM, pIC50
data = [
    ("Nc1nc2c(s1)-c1nc(Nc3cccc([N+](=O)[O-])c3)ncc1CC2", "Cyclin E - CDK2 (Homo sapiens, UniProt P24941)", 9.00),
    ("Cc1nc2c(s1)-c1nc(N(C)c3cccc([N+](=O)[O-])c3)ncc1CC2", "Cyclin E - CDK2 (Homo sapiens, UniProt P24941)", 5.93),
    ("Cc1nc2c(s1)-c1nc(Nc3ccc(N(C)C)cc3)ncc1CC2", "Cyclin E - CDK2 (Homo sapiens, UniProt P24941)", 7.68),
]

# input Provide value of pIC50 for this record tested with Cyclin E - CDK2 (Homo sapiens, UniProt P24941): COc1ccc(Nc2ncc3c(n2)-c2sc(C)nc2CC3)cn1
# output 7.05

# input Provide value of pIC50 for this record tested with Cyclin E - CDK2 (Homo sapiens, UniProt P24941): Cc1nc2ccc3cnc(N(C)c4cccc([N+](=O)[O-])c4)nc3c2s1
# output 5.49
